# measuredOn: t-PA (Homo sapiens, UniProt P00750)
# Sequence (P00750 36-562, species assumed): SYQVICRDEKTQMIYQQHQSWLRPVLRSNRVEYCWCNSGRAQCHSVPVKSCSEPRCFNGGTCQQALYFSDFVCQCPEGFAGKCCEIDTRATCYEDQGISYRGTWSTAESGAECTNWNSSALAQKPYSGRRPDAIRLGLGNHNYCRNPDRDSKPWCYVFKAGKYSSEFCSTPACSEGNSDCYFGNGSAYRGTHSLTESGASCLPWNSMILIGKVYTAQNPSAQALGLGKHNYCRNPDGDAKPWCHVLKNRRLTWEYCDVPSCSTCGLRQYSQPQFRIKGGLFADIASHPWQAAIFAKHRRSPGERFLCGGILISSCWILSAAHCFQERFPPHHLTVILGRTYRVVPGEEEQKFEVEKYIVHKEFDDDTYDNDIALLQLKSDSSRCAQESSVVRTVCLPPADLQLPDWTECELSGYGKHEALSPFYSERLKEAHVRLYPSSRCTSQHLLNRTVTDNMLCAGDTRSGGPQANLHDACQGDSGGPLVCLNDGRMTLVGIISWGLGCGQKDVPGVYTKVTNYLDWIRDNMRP
pIC50: −log10 of the molar value.
measurementLabel: pIC50

itemsmiles=CC(C)(S)[C@@H](N)C(=O)O recordedmeasurement=3.92

###

# Inhibition factor (IF) annotations
# measuredOn: gelatinase B from neutrophils (Homo sapiens, UniProt P14780)
# Sequence (P14780 94-707): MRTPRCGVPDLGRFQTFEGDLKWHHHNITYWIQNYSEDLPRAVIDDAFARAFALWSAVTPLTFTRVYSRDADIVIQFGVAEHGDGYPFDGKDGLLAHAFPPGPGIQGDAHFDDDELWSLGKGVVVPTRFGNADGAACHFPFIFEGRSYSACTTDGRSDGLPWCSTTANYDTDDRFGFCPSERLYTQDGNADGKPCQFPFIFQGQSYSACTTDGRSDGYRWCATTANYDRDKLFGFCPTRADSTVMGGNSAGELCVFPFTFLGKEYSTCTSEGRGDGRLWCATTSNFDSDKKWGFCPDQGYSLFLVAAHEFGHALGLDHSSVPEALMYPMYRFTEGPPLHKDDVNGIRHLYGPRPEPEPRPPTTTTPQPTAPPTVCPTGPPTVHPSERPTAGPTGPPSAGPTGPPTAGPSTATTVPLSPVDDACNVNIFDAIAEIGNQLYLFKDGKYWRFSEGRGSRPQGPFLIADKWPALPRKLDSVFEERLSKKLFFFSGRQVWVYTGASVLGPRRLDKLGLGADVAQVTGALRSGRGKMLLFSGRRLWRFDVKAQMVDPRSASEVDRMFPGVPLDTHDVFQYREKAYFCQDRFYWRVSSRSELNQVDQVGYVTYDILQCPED
# assayProcedure: gelatinase (inhibitor) microtiter plate assay with biotinylated gelatin
# Assay type: biochemical
# Design: endogenous in cells; host or cells: human neutrophils stimulated with lipopolysaccharide; conditioned medium
# conditionParameters: tetracycline concentration 0,83 mg/ml
Where a name gives a salt, the structure may show the parent alone.
measurementLabel: Inhibition factor (IF)

compound="CN(C)C1C(=O)C(C(N)=O)=C(O)C2(O)C(=O)C3=C(O)c4c(O)ccc(Cl)c4C(C)(O)C3CC12 (centres unmarked) [4-epichlortetracycline HCl]" measurementlabel="Inhibition factor (IF)" recordedmeasurement=3
compound="CN(C)[C@@H]1C(O)=C(C(N)=O)C(=O)[C@@]2(O)C(O)=C3C(=O)c4c(O)ccc(Cl)c4[C@@](C)(O)[C@H]3C[C@@H]12 [chlortetracycline HCl]" measurementlabel="Inhibition factor (IF)" recordedmeasurement=9
compound="CN(C)[C@@H]1C(O)=C(C(N)=O)C(=O)[C@@]2(O)C(O)=C3C(=O)c4c(O)cccc4C[C@H]3C[C@@H]12.Cl [6-deoxy-6-demethyltetracycline HCl]" measurementlabel="Inhibition factor (IF)" recordedmeasurement=3
compound="Cc1c2c(c(O)c3c(O)cccc13)C(=O)C1(O)C(O)=C(C(N)=O)C(=O)C(N(C)C)C1C2 (centres unmarked) [4-epianhydrotetracycline HCl]" measurementlabel="Inhibition factor (IF)" recordedmeasurement=2
compound="C=C1c2cccc(O)c2C(=O)C2=C(O)[C@]3(O)C(=O)C(C(N)=O)=C(O)[C@@H](N(C)C)[C@@H]3[C@@H](O)[C@H]12 [metacycline HCl]" measurementlabel="Inhibition factor (IF)" recordedmeasurement=3

###

# measuredOn: gelatinase B from neutrophils (Homo sapiens)
# assayProcedure: gelatinase (inhibitor) microtiter plate assay with biotinylated gelatin
# Assay type: biochemical
# Set-up: endogenous in cells; host or cells: human neutrophils stimulated with lipopolysaccharide; conditioned medium
# conditionParameters: qualitative statements
Structures can show the parent of a compound that is named as a salt.
measurementLabel: gelatinase B inhibitory activity in the plate assay (in words)

compound="Cc1c2c(c(O)c3c(O)ccc(Cl)c13)C(=O)C1(O)C(O)=C(C(N)=O)C(=O)C(N(C)C)C1C2 (stereo not drawn) [4-epianhydrochlortetracycline HCl]" recordedmeasurement="less active"
compound="CN(C)c1ccc(O)c2c1C[C@H]1C[C@H]3[C@@H](N(C)C)C(O)=C(C(N)=O)C(=O)[C@@]3(O)C(O)=C1C2=O [4-epiminocycline HCl]" recordedmeasurement="less active"

###

# measuredOn: u-PA (Homo sapiens)
pIC50: −log10 of the molar value.
measurementLabel: pIC50

compound="CC(C)(S)[C@@H](N)C(=O)O [D-penicillamine]" recordedmeasurement=4.03

###

# measuredOn: gelatinase B from neutrophils (Homo sapiens, UniProt P14780)
# assayProcedure: gelatinase (inhibitor) microtiter plate assay with biotinylated gelatin
# Type: biochemical
# Set-up: endogenous in cells; host or cells: human neutrophils stimulated with lipopolysaccharide; conditioned medium
# conditionParameters: tetracycline concentration 3.33 mg/ml
# Experimental: The measurement of gelatinase activity was based on the detection of non-degraded biotinylated gelatin with a streptavidin-peroxidase conjugate. […] Modified flat bottom 96-well ELISA plates were coated overnight with 0.5 µg/ml avidin in distilled water. […] After rinsing the plate, the ABTS substrate was added (0.5 mg/ml solution containing 0.1 M citric acid, 0.2 M Na2HPO4, pH 4.3, 0.07 µl/ml 30% H2O2) and the optical density was read at 405 nm after 10 min. incubation at room temperature. […]
Counter-ions that a name gives are not always drawn.
In this section we review reported Inhibition factor (IF) values for a set of molecules.
measurementLabel: Inhibition factor (IF)

molecule="CN(C)c1ccc(O)c2c1C[C@H]1C[C@H]3[C@H](N(C)C)C(O)=C(C(N)=O)C(=O)[C@@]3(O)C(O)=C1C2=O [minocycline HCl]" measuredon="gelatinase B from neutrophils (Homo sapiens, UniProt P14780)" recordedmeasurement=8
molecule="CN(C)[C@@H]1C(O)=C(C(N)=O)C(=O)[C@@]2(O)C(O)=C3C(=O)c4c(O)cccc4[C@@](C)(O)[C@H]3C[C@@H]12 [tetracycline HCl]" measuredon="gelatinase B from neutrophils (Homo sapiens, UniProt P14780)" recordedmeasurement=8
molecule="CN(C)[C@@H]1C(O)=C(C(N)=O)C(=O)[C@@]2(O)C(O)=C3C(=O)c4c(O)cccc4C[C@H]3C[C@@H]12.Cl [6-deoxy-6-demethyltetracycline HCl]" measuredon="gelatinase B from neutrophils (Homo sapiens, UniProt P14780)" recordedmeasurement=8

###

# measuredOn: gelatinase B from neutrophils (Homo sapiens)
# assayProcedure: gelatinase (inhibitor) microtiter plate assay with biotinylated gelatin
# Type: biochemical
# Set-up: endogenous in cells; host or cells: human neutrophils stimulated with lipopolysaccharide; conditioned medium
# conditionParameters: tetracycline concentration 3.33 mg/ml
Where a name gives a salt, the structure may show the parent alone.
measurementLabel: Inhibition factor (IF)

compound="CN(C)C1C(=O)C(C(N)=O)=C(O)C2(O)C(=O)C3=C(O)c4c(O)cccc4C(C)(O)C3C(O)C12 (stereo not drawn) [4-epioxytetracyline base]" measurementlabel="Inhibition factor (IF)" recordedmeasurement=20
compound="CN(C)c1ccc(O)c2c1C[C@H]1C[C@H]3[C@@H](N(C)C)C(O)=C(C(N)=O)C(=O)[C@@]3(O)C(O)=C1C2=O [4-epiminocycline HCl]" measurementlabel="Inhibition factor (IF)" recordedmeasurement=3
compound="CN(C)[C@@H]1C(=O)C(C(N)=O)=C(O)[C@@]2(O)C(=O)C[C@@H]([C@]3(C)OC(=O)c4c(O)ccc(Cl)c43)C[C@@H]12 [isochlortetracycline HCl]" measurementlabel="Inhibition factor (IF)" recordedmeasurement=3
compound="CN(C)[C@@H]1C(O)=C(C(N)=O)C(=O)[C@@]2(O)C(O)=C3C(=O)c4c(O)ccc(Cl)c4[C@@](C)(O)[C@H]3C[C@@H]12 [chlortetracycline HCl]" measurementlabel="Inhibition factor (IF)" recordedmeasurement=45
compound="C=C1c2cccc(O)c2C(=O)C2=C(O)[C@]3(O)C(=O)C(C(N)=O)=C(O)[C@@H](N(C)C)[C@@H]3[C@@H](O)[C@H]12 [metacycline HCl]" measurementlabel="Inhibition factor (IF)" recordedmeasurement=27

###

# measuredOn: gelatinase B from neutrophils (Homo sapiens, UniProt P14780)
# assayProcedure: gelatinase (inhibitor) microtiter plate assay with biotinylated gelatin
# Type: biochemical
# Parameters: endogenous in cells; host or cells: human neutrophils stimulated with lipopolysaccharide; conditioned medium
# conditionParameters: tetracycline concentration 1.67 mg/ml
Counter-ions that a name gives are not always drawn.
Please use Fulfilled whenever Inhibition factor (IF) is not below 8, and Not fulfilled whenever it is.

compound="CN(C)[C@@H]1C(O)=C(C(N)=O)C(=O)[C@@]2(O)C(O)=C3C(=O)c4c(O)cccc4C[C@H]3C[C@@H]12.Cl [6-deoxy-6-demethyltetracycline HCl]" measuredon="gelatinase B from neutrophils (Homo sapiens, UniProt P14780)" label="Not fulfilled"
compound="CN(C)[C@@H]1C(O)=C(C(N)=O)C(=O)[C@@]2(O)C(O)=C3C(=O)c4c(O)cccc4[C@@](C)(O)[C@H]3C[C@@H]12 [tetracycline HCl]" measuredon="gelatinase B from neutrophils (Homo sapiens, UniProt P14780)" label="Not fulfilled"
compound="CN(C)c1ccc(O)c2c1C[C@H]1C[C@H]3[C@H](N(C)C)C(O)=C(C(N)=O)C(=O)[C@@]3(O)C(O)=C1C2=O [minocycline HCl]" measuredon="gelatinase B from neutrophils (Homo sapiens, UniProt P14780)" label="Not fulfilled"
compound="CN(C)C1C(=O)C(C(N)=O)=C(O)C2(O)C(=O)C3=C(O)c4c(O)cccc4C(C)(O)C3C(O)C12 (centres unmarked) [4-epioxytetracyline base]" measuredon="gelatinase B from neutrophils (Homo sapiens, UniProt P14780)" label="Not fulfilled"
compound="CN(C)[C@@H]1C(O)=C(C(N)=O)C(=O)[C@@]2(O)C(O)=C3C(=O)c4c(O)ccc(Cl)c4[C@@](C)(O)[C@H]3C[C@@H]12 [chlortetracycline HCl]" measuredon="gelatinase B from neutrophils (Homo sapiens, UniProt P14780)" label=Fulfilled
compound="CN(C)C1C(=O)C(C(N)=O)=C(O)C2(O)C(=O)C3=C(O)c4c(O)ccc(Cl)c4C(C)(O)C3CC12 (centres unmarked) [4-epichlortetracycline HCl]" measuredon="gelatinase B from neutrophils (Homo sapiens, UniProt P14780)" label=Fulfilled
compound="Cc1c2c(c(O)c3c(O)cccc13)C(=O)C1(O)C(O)=C(C(N)=O)C(=O)C(N(C)C)C1C2 (centres unmarked) [4-epianhydrotetracycline HCl]" measuredon="gelatinase B from neutrophils (Homo sapiens, UniProt P14780)" label="Not fulfilled"
